System: RXF 393 renal
Assay: NCI-60 one-dose screen, 48 h (100 = growth as untreated, 0 = no growth, -100 = all killed)
Details: 10 µM unless noted
The panel holds about 83,000 compounds, 20% with a hit somewhere; the sample as a whole holds those more often.
In plain terms, low growth, meaning strictly below 80%, gives yes (1), and everything else gives no (0).

>>> assignedcategory("O=C1/C(=C/c2cn(-c3ccccc3)nc2-c2ccccc2)SC(=S)N1c1ccc(Cl)cc1")
"no (0)"
>>> assignedcategory("Cc1cnc(C(=O)NNc2nc3sc4c(c3c(=O)[nH]2)C(C)CCC4)cn1 (centres undefined)")
"yes (1)"

Request: API: query returns whether the compound falls strictly under 80% in growth. Query: NC(N)=NC(N)=NCCCc1ccco1
Result: no (0)

Request: API: query returns whether the compound falls strictly under 80% in growth. Query: N#CSc1c[nH]c2ccc(/C=C/C(=O)/C=C(/C=C/c3ccc4[nH]cc(SC#N)c4c3)OB(F)F)cc12
Result: yes (1)

Request: API: query returns whether the compound falls strictly under 80% in growth. Query: CN1CCN(C(=O)OCc2nc3c(N4CCOCC4)nc(Cl)nc3n2C)CC1
Result: yes (1)

Request: API: query returns whether the compound falls strictly under 80% in growth. Query: O=C(CN1C(=O)S/C(=C\C(Cl)=C\c2ccccc2)C1=O)NC1C=CS(=O)(=O)C1 (centres undefined)
Result: yes (1)

Request: API: query returns whether the compound falls strictly under 80% in growth. Query: O=C1/C(=C/c2cn(-c3ccccc3)nc2-c2ccccc2)SC(=S)N1c1ccccc1
Result: no (0)

Request: API: query returns whether the compound falls strictly under 80% in growth. Query: COC(=O)c1nc(-c2ccc(C)cc2)oc1S(=O)(=O)c1ccc(Cl)cc1
Result: no (0)

Request: API: query returns whether the compound falls strictly under 80% in growth. Query: CCOC(=O)n1cc(-c2nonc2-c2cn(C)c3ccc(OC)cc23)c2cc(F)ccc21
Result: no (0)
